# target.entity: T1, recombinant LILRB2 ECD (human, UniProt Q8N423 22-460)
# T1 construct: also called biotinylated LILRB2 ECD
# test.summary: ELISA, LILRB2 ECD binding to HLA-G-Fc
measured.attribute: pIC50
Please express pIC50 as -log10 of the molar concentration.

Give its pIC50 value. Item: A-039 (antibody, V domains shown, tested as IgG) VH: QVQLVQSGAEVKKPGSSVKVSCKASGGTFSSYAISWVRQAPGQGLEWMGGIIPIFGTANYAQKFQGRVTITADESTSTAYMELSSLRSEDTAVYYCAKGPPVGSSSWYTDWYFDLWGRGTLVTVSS VL: SYELTQPPSVSVSPGQTASITCSGDKLGDKYASWYQQKPGQSPVLVIYQDSKRPSGIPERFSGSNSGNTATLTISGTQAEDEADYYCALYGGGHTVVFGGGTKLTVL 8.62

Lab note: next binder to report on.
Give its pIC50 value. Item: A-047 (antibody, V domains shown, tested as IgG) VH: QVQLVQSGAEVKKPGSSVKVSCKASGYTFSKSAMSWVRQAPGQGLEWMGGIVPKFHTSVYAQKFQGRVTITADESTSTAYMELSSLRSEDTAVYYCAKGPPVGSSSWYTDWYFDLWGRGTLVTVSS VL: SYELTQPPSVSVSPGQTASITCSGDKLGDKYASWYQQKPGQSPVLVIYQDSKRPSGIPERFSGSNSGNTATLTISGTQAEDEADYYCSLYGAGHTVVFGGGTKLTVL 8.34
